In this section we review reported melting point values for a set of compounds.
readout-label: melting point

[[record]]
compound = "O=C(O)CCCS(=O)(=O)c1ccccc1"
measured_value = "94 to 95 °C"

[[record]]
compound = "COc1cc2c(Cl)c(C#N)cnc2cc1N1CCN(C)CC1"
measured_value = "177 to 179 °C"

[[record]]
compound = "COc1cc(/C=C/C(=O)O)ccc1OCc1sc(-c2ccc(C(F)(F)F)cc2)nc1C"
measured_value = "235 to 237 °C"

[[record]]
compound = "Cc1c(NC(=O)C(CSC(=O)c2cccnc2)Cc2ccccc2)cccc1C(=O)O (stereo unspecified)"
measured_value = "80 to 86 °C"

[[record]]
compound = "COc1cccc(C2CCC(O)O2)c1 (stereo unspecified)"
measured_value = "76.5 to 78 °C"

[[record]]
compound = "O=C(Nc1ccc(-n2nc(C(F)(F)F)cc2C(F)(F)F)cc1)c1ccc[nH]1"
measured_value = "> 240 °C"

[[record]]
compound = "Cc1ccc(N2CCSC2N)c([N+](=O)[O-])c1 (stereo unspecified)"
measured_value = "132 to 134 °C"

[[record]]
compound = "C#CC1(OC(=O)c2ccccc2)C(COC(=O)c2ccc(Cl)cc2)OC(n2ccc(=O)[nH]c2=O)C1OC(=O)c1ccccc1 (stereo unspecified)"
measured_value = "158 to 160 °C"

[[record]]
compound = "CC(C)(C)CNc1cc(N2CCNCC2)nc(NC(C)(C)C)n1"
measured_value = "120 to 124 °C"

[[record]]
compound = "CC(=O)OCC1OC(n2cc(C(Br)=CBr)c(=O)[nH]c2=O)CC1OC(C)=O (stereo unspecified)"
measured_value = "79 to 81 °C"

[[record]]
compound = "CCCc1c(O)ccc2c1OCCC2=O"
measured_value = "126 to 129 °C"

[[record]]
compound = "COc1ccc(CNc2nc[nH]n2)cc1OC1CCCC1"
measured_value = "203 to 204 °C"

[[record]]
compound = "N#Cc1cc(-c2ccncc2)sc1-c1ccncc1"
measured_value = "205 to 207 °C"

[[record]]
compound = "CCN1C(=O)N(c2ccc([N+](=O)[O-])c(C(F)(F)F)c2)C(=O)C1(C)C"
measured_value = "110 to 111 °C"

[[record]]
compound = "COc1cccc(C(=O)NCCCCCCCNC(=O)c2cccc(OC)c2)c1"
measured_value = "109 to 112 °C"

[[record]]
compound = "CCOC(=O)C1=C(C)Nc2nc(N3CCOCC3)nc(N3CCOCC3)c2C1c1cccc(OC)c1OC (stereo unspecified)"
measured_value = "194 °C"

[[record]]
compound = "CCn1cc(C(=O)O)c(=O)c2cc(F)c(N3CC4CC3CN4Cc3ccccc3)c(F)c21 (stereo unspecified)"
measured_value = "195 to 198 °C"

[[record]]
compound = "COc1ccc(OC)c(C(=S)N2CCOCC2)c1"
measured_value = "127 °C"

[[record]]
compound = "NNc1nnc(Cl)cc1C(=O)O"
measured_value = "198 to 201 °C"

[[record]]
compound = "C=CCNc1nc(NCCN)nc2ccc([N+](=O)[O-])cc12"
measured_value = "126 to 128 °C"

[[record]]
compound = "CC(C)OC(=O)Nc1cc(-c2ccnc3c(C(=O)c4cccs4)cnn23)ccc1N(C)C"
measured_value = "164 to 165 °C"

